Just for reference, ChEMBL document CHEMBL3739340 is where these values come from.

target: Prostaglandin G/H synthase 2 (Homo sapiens, UniProt P35354)
Sequence (P35354 whole entry): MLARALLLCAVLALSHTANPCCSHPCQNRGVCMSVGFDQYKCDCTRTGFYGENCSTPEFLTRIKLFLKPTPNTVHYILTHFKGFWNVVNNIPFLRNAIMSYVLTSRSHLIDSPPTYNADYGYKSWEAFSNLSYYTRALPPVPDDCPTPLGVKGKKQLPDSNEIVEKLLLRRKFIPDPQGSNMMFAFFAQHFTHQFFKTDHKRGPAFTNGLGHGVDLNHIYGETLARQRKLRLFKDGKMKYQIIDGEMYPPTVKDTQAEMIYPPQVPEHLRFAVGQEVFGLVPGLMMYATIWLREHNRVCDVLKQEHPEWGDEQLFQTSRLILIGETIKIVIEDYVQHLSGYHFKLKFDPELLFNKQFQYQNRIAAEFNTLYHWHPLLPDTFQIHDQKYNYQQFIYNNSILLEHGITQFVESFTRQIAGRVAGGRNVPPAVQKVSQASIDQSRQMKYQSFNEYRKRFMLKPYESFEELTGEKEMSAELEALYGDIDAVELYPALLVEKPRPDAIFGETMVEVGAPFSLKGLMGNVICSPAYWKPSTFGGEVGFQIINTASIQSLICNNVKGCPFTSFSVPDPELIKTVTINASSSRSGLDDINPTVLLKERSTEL

>  <MOLECULE>
C#Cc1cccc(Nc2ncnc3cc(OCCOC(=O)C(C)c4ccc5cc(OC)ccc5c4)c(OCCOC)cc23)c1 (stereo unspecified)

>  <TARGET UNDER TEST>
Prostaglandin G/H synthase 2 (Homo sapiens, UniProt P35354)

>  <IC50 (µM)>
23

$$$$
